Values were extracted from paper PMC2196205.

# Measured Target: Zif268 (mouse, UniProt P08046 333-421)
# Protocol Details: ELISA
Reported Metric: Kd (nM)
State just the number; it will be interpreted in nM.

Query block: Which Kd value is on record for ZifDNA (dsDNA) DNA 1: GGCATAGTGCGTGGGCGTTAGC DNA 2: GCTAACGCCCACGCACTATGCC ?
Result block: 12
